Biological target: Mas-related G-protein coupled receptor member X1 (Homo sapiens)
Assay: MrgX1 activation via calcium signaling – HEK293 cells, Fluo-4 calcium flux, primary screen (AID 588627)
Details: Fluo-4 calcium fluorescence, agonist mode, at 10 µM
Out of some 310,000 compounds screened, about 1,400 (0.45%) were called active.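 How the source made its calls: active means calcium response B-score plate-corrected fluorescence ratio at least 3 library SD, with starting fluorescence B-score inside 5 SD; inactive means the rest.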 Only a selection was taken, and actives are over-represented in it overall.
Write down one outcome, taken from 1 for active, 0 for inactive

Illustrative cases are given below, each with its answer.
compound | assigned category
COCCNC(=O)C1CCN(C(=O)C2CC(=O)N(c3ccc(C)cc3)C2)CC1 (stereo not given) | 0
CNC(=S)N1CCC(NC(=O)C(Cc2ccc(F)cc2)NC(C)=O)CC1 (stereo not given) | 0
CCNS(=O)(=O)c1ccc(CCC(=O)N2CCN(c3ccc(OC)cc3)CC2)cc1 | 0
Cc1onc(-c2ccccc2)c1C(=O)Nc1ccccc1C#N | 0

query: Tell me the assay call for Cc1onc(-c2ccccc2)c1C(=O)NNC(=S)NC(=O)c1ccc(F)cc1 please.
result: 1

Reference source: PubChem BioAssay AID588627
